Cited source: ChEMBL document CHEMBL1201862

tested on: CCRF-CEM; assay: NCI tumour cell line growth inhibition, 48 h
Calls of active or inactive are those of the source. No stated cut-off is given here; in the data, active = GI50 up to about 1.1 µM and inactive = higher.
API: response.call in YES for active, NO for inactive

compound	cat
O=C(NNC(=O)c1ccccc1O)c1ccc(O)cc1	NO
C=CC(C)(C)c1cc([C@@H]2COc3cc(O)ccc3C2=O)c(O)c(O)c1OC	NO
O=C(CN1CCCCC1)N1CCc2c([nH]c3ccccc23)C1c1cccnc1 (stereo unspecified)	NO
O=C(O)c1ccccc1CC1Cc2ccc3c(c2C1=O)CCC3 (stereo unspecified)	NO
CN(C)CCCOC(=O)C(c1ccccc1)C1(O)CCSCC1 (stereo unspecified)	NO

# input In this assay, the call recorded for COc1cc(/C=C2\C(=O)N(c3ccc(Cl)cc3)C(c3ccccc3)S2(=O)=O)cc(OC)c1OC (stereo unspecified) was what?
# output NO

# input Outcome? `O=[N+]([O-])c1cccc(/N=N/c2c(O)c(S(=O)(=O)O)cc3cc(S(=O)(=O)O)ccc23)c1`
# output NO

# input Hi team, can someone confirm the assay call for `COc1cccc(C(=O)C#Cc2cnc(OC)nc2OC)c1` ?
# output YES

# input // param item: `COc1cc(OC)nc(-n2c(N)c(C(=O)O)c3ccc([N+](=O)[O-])cc3c2=O)n1` ; yields the recorded call
# output NO

# input Which outcome was assigned to Nc1ccn(C2CC3OCC3O2)c(=O)n1 (stereo unspecified) in this test?
# output NO

* * *

tested on: Malme-3M; test: NCI tumour cell line growth inhibition, 48 h
The source made the active and inactive calls. Rule as the data show it: active = GI50 up to about 1.1 µM and inactive = higher.
Please state which outcome applies, choosing from True for active, False for inactive

Worked examples, 8 compounds total:
compound	cat
NC(CCCCNCc1ccccc1)C(=O)O (configuration not stated)	False
COc1ccc2c(c1)CCC(CN1CCN(CCOC(c3ccc(F)cc3)c3ccc(F)cc3)CC1)C2O (configuration not stated)	False
N#C[C@H]1Nc2ccccc2[C@@H](O)C1O (some centres not stated)	False
NS(=O)(=O)c1ccc(NCc2cnc3ccccc3c2)cc1	False
O=c1ccn(C2OC(COC3CCCCO3)C(OC3CCCCO3)C2OC2CCCCO2)c(=O)n1-c1ccccc1 (configuration not stated)	False
CC(C)(C)c1ccc(O)c(CN(Cc2cc(C(C)(C)C)ccc2O)C2CCCCC2)c1	False
O=C(O)c1cc2c(cc1CC(Cc1ccc3c(c1)CCC3)C(=O)O)CCC2 (configuration not stated)	False
CCC1OC(=O)CC(O)C(C)C(OC2OC(C)C(O)C(N(C)C)C2O)C(CC=O)CC(C)C(=O)/C=C/C2(C)OC2C1C (configuration not stated)	False

Now examine the next entry.
# input Hi team, can someone confirm the assay call for `C\C=C/C=C/C=C/C(=O)O` ?
# output False

* * *

test system: MDA-MB-231; assay: NCI tumour cell line growth inhibition, 48 h
Active and inactive are the calls of the source. Rule as the data show it: active = GI50 up to about 1.1 µM and inactive = higher.
Measured GI50, listed per entry.

# example entries with known answers
molecule	GI50
COc1cc(/C=C2\C(=O)N(c3ccc(Cl)cc3)C(c3ccccc3)S2(=O)=O)cc(OC)c1OC (stereo unspecified)	> 69.3 µM (inactive)
CCOC(=O)C(=[N+]=[N-])C(=O)C[N+]12CCN(CC1)CC2	> 100 µM (inactive)

Now examine the next entry.
# input Using the record for `N#CCCN(CCC#N)c1ccc(/C=C2\N=C(c3ccccc3)N(c3ccc(F)cc3)C2=O)cc1` , report its GI50.
# output > 100 µM (inactive)
